meta.source: ChEMBL document CHEMBL1817560

# MEASURED_TARGET: Aurora kinase A (Homo sapiens) (UniProt O14965)
# Sequence (whole entry): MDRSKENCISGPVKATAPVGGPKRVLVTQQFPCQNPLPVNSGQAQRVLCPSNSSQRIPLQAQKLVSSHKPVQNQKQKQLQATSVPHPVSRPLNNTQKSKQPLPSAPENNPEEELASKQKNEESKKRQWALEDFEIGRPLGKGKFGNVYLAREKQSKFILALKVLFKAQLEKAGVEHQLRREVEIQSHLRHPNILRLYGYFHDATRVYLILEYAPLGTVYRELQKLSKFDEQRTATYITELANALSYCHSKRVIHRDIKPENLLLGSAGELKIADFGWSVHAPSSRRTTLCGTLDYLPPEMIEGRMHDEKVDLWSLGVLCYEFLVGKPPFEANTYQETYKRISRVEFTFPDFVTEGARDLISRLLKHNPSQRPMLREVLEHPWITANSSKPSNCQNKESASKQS
# PROCEDURE_DETAILS: Inhibition of AurA expressed in Escherichia coli or baculovirus-infected insect cells at 400 uM by IMAP assay
PROPERTY_NAME: inhibition

MOL_SMILES	PROPERTY_NAME	RESULT
Nc1ncccc1OCc1ccccc1	inhibition	40%
Cc1ccc(NC(=O)Nc2cc(C(C)(C)C)nn2-c2ccccc2)cc1	inhibition	7%
c1ccc(-c2cnc3nccnn23)cc1	inhibition	0%
c1ccc(Nc2ccccc2)cc1	inhibition	0%
c1ccc2[nH]ncc2c1	inhibition	37%
Cc1ccc(C(=O)NC2CC2)cc1F	inhibition	5%
c1ccc(Nc2ncccn2)cc1	inhibition	89%
Nc1[nH]cnc2ncnc1-2	inhibition	90%
Nc1ccc2ncc(-c3ccccc3)n2n1	inhibition	96%

====

Here, each record is paired with measured inhibition data.
# MEASURED_TARGET: Tyrosine-protein kinase JAK3 (Homo sapiens)
# PROCEDURE_DETAILS: Inhibition of JAK3 expressed in Escherichia coli or baculovirus-infected insect cells at 667 uM by TR-FRET assay

MOL_SMILES	MEASURED_TARGET	inhibition
CC(C)(C)c1cc(NC(=O)Nc2ccccc2)no1	Tyrosine-protein kinase JAK3 (Homo sapiens)	0%
Cc1ccc(NC(=O)Nc2cc(C(C)(C)C)nn2-c2ccccc2)cc1	Tyrosine-protein kinase JAK3 (Homo sapiens)	0%
c1cnc2[nH]ccc2c1	Tyrosine-protein kinase JAK3 (Homo sapiens)	53%
Cc1ccc(NC(=O)Nc2cccc(C(F)(F)F)c2)cc1	Tyrosine-protein kinase JAK3 (Homo sapiens)	0%
Nc1[nH]cnc2ncnc1-2	Tyrosine-protein kinase JAK3 (Homo sapiens)	78%
O=C(Nc1ccccc1)Nc1ccccc1	Tyrosine-protein kinase JAK3 (Homo sapiens)	0%
c1ccc(-c2cnc3nccnn23)cc1	Tyrosine-protein kinase JAK3 (Homo sapiens)	0%
Nc1n[nH]c2ncccc12	Tyrosine-protein kinase JAK3 (Homo sapiens)	54%

====

# MEASURED_TARGET: Phosphatidylinositol 4,5-bisphosphate 3-kinase catalytic subunit alpha isoform (Homo sapiens)
# PROCEDURE_DETAILS: Inhibition of PI3Kalpha expressed in Escherichia coli or baculovirus-infected insect cells using gamma-[33P]ATP at 400 uM by scintillation proximity assay
Here, each record is paired with measured inhibition data.
PROPERTY_NAME: inhibition (%)

MOL_SMILES	MEASURED_NUMBER
c1ccc(Nc2ccccc2)cc1	20
CC(C)(C)c1cc(NC(=O)Nc2ccccc2)no1	40
Cc1ccc(C(=O)NC2CC2)cc1F	16
Nc1[nH]cnc2ncnc1-2	45
Cc1ccc(NC(=O)Nc2cccc(C(F)(F)F)c2)cc1	4
c1ccc(Nc2ncccn2)cc1	14
c1ccc2[nH]ncc2c1	6
c1ccc(-c2cnc3nccnn23)cc1	46

====

# MEASURED_TARGET: Tyrosine-protein kinase Fes/Fps (Homo sapiens) (UniProt P07332)
# Sequence (P07332 whole entry): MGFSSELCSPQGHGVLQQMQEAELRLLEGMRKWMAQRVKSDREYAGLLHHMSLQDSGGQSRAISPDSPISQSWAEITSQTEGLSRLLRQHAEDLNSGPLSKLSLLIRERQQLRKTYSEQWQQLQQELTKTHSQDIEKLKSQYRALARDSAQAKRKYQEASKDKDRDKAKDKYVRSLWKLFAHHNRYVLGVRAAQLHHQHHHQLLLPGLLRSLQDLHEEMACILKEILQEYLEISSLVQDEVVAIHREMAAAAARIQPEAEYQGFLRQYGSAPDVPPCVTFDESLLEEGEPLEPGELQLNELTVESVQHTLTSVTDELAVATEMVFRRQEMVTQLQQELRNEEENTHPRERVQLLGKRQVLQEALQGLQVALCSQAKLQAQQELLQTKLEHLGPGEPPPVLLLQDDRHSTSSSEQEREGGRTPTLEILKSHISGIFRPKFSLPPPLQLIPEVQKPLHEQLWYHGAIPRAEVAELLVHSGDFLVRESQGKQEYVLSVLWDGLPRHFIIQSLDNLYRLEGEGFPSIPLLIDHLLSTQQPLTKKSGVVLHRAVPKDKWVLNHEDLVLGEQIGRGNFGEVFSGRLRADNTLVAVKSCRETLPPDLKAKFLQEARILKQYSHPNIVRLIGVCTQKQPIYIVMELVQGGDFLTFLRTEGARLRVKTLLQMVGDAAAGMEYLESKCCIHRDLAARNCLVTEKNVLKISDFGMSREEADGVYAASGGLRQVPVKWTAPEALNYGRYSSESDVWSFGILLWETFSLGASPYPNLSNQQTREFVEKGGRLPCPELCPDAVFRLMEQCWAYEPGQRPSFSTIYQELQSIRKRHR
# PROCEDURE_DETAILS: Inhibition of FES expressed in Escherichia coli or baculovirus-infected insect cells using ATP as substrate at 400 uM by fluorescence polarization assay
Here, each record is paired with measured inhibition data.

MOL_SMILES	SCALE_UNIT	inhibition
Nc1[nH]nc2ccccc12	%	11
CC(C)(C)c1cc(NC(=O)Nc2ccccc2)no1	%	3
c1ccc(Nc2ccccc2)cc1	%	9
Cc1ccc(NC(=O)Nc2cc(C(C)(C)C)nn2-c2ccccc2)cc1	%	3
O=C(Nc1ccccc1)Nc1cccc(C(F)(F)F)c1	%	6
Nc1ncccc1OCc1ccccc1	%	100
c1ccc2[nH]ncc2c1	%	1
